The reported numbers originate from the supplement of paper PMC3334620.

# TGT: Ybr033w (UniProt P38073)
# Sequence: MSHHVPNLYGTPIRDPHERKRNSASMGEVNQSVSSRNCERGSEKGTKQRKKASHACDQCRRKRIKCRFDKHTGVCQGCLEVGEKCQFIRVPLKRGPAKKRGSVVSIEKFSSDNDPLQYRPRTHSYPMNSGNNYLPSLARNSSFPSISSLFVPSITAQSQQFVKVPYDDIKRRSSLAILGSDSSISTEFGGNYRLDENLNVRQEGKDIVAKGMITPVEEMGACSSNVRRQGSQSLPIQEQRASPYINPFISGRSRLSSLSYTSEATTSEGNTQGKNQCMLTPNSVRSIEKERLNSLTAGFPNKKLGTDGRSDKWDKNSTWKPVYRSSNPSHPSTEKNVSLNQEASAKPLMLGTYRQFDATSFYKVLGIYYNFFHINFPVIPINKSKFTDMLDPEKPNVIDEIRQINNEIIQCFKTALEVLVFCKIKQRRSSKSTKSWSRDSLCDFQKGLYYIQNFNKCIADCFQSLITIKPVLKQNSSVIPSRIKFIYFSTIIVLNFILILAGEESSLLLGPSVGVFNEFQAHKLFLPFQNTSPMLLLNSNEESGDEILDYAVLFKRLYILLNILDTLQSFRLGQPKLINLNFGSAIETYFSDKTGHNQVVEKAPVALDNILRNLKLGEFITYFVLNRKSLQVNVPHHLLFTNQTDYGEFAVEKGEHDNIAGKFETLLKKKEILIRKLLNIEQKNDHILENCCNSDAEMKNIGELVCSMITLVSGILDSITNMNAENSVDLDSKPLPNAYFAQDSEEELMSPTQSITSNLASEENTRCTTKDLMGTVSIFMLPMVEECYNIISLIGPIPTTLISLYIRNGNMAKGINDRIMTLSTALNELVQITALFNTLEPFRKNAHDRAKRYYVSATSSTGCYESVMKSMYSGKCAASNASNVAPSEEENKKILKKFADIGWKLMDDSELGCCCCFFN
# ASSAY_PROCEDURE: PBM E-score (8-mer binding enrichment) (E-score (-0.5 to 0.5)); higher = stronger / more preferred TF binding
# CONDITION_SET: protein concentration: 200 nM; construct: GST-full length
Whole data set: some 33,000 sequences, median “E-score (-0.5 to 0.5)” near -0.012, cut for the highest 2% near 0.29. For the sample, the highest values were picked, then their nearest neighbours and some sequences at random.

ORDERED_RESIDUES	TGT	PBM E-score
CATTTATC	Ybr033w (UniProt P38073)	0.278
ATACCATA	Ybr033w (UniProt P38073)	0.297
CGGGTAGA	Ybr033w (UniProt P38073)	-0.0322
AATTTATG	Ybr033w (UniProt P38073)	0.317
GTCGTTTA	Ybr033w (UniProt P38073)	0.0819
AAAAAGCG	Ybr033w (UniProt P38073)	0.112
ATGCACGA	Ybr033w (UniProt P38073)	-0.021
GAGAACTA	Ybr033w (UniProt P38073)	0.101
CAAAATAG	Ybr033w (UniProt P38073)	0.0554
TCCAATCA	Ybr033w (UniProt P38073)	0.0621
CTCTAGCA	Ybr033w (UniProt P38073)	-0.0957
AATTTTAT	Ybr033w (UniProt P38073)	0.331
AAAAATAG	Ybr033w (UniProt P38073)	0.296
CCCCAAGA	Ybr033w (UniProt P38073)	-0.0572
AAACCAAT	Ybr033w (UniProt P38073)	0.272
TATTTACA	Ybr033w (UniProt P38073)	0.21
AAAAATAT	Ybr033w (UniProt P38073)	0.349
ATTGTTTA	Ybr033w (UniProt P38073)	0.296
AAAAATAC	Ybr033w (UniProt P38073)	0.304
AATCCGCA	Ybr033w (UniProt P38073)	0.119
GTCTGAGA	Ybr033w (UniProt P38073)	-0.163
ATACCATG	Ybr033w (UniProt P38073)	-0.0754
GGAACACA	Ybr033w (UniProt P38073)	0.149
ACTTTATG	Ybr033w (UniProt P38073)	0.132
ACGCGACT	Ybr033w (UniProt P38073)	-0.174
AGTTTATG	Ybr033w (UniProt P38073)	0.2
AGTTTATC	Ybr033w (UniProt P38073)	0.363
CAGATCGC	Ybr033w (UniProt P38073)	-0.164
TATCCGCA	Ybr033w (UniProt P38073)	0.306
ATCACAAG	Ybr033w (UniProt P38073)	0.107
ATTGTTTG	Ybr033w (UniProt P38073)	0.118
CACCAACC	Ybr033w (UniProt P38073)	-0.105
AGAAACCC	Ybr033w (UniProt P38073)	0.0994
GATTTACA	Ybr033w (UniProt P38073)	0.297
AATTTATA	Ybr033w (UniProt P38073)	0.257
CATTTCGG	Ybr033w (UniProt P38073)	-0.0324
ATTGTTTC	Ybr033w (UniProt P38073)	0.199
CTGTGAGC	Ybr033w (UniProt P38073)	-0.0445
ATCGTTTC	Ybr033w (UniProt P38073)	0.184
ATAGGTAG	Ybr033w (UniProt P38073)	0.0525
AGAAGACG	Ybr033w (UniProt P38073)	0.123
GAAAATAC	Ybr033w (UniProt P38073)	0.252
GACCTATC	Ybr033w (UniProt P38073)	-0.0417
AATCTTTC	Ybr033w (UniProt P38073)	0.00719
AATTTATC	Ybr033w (UniProt P38073)	0.398
GTGGTAGA	Ybr033w (UniProt P38073)	-0.158

###

Below is a list of entries, each paired with its recorded PBM E-score value.
# TGT: Ybr033w (UniProt P38073)
# Sequence: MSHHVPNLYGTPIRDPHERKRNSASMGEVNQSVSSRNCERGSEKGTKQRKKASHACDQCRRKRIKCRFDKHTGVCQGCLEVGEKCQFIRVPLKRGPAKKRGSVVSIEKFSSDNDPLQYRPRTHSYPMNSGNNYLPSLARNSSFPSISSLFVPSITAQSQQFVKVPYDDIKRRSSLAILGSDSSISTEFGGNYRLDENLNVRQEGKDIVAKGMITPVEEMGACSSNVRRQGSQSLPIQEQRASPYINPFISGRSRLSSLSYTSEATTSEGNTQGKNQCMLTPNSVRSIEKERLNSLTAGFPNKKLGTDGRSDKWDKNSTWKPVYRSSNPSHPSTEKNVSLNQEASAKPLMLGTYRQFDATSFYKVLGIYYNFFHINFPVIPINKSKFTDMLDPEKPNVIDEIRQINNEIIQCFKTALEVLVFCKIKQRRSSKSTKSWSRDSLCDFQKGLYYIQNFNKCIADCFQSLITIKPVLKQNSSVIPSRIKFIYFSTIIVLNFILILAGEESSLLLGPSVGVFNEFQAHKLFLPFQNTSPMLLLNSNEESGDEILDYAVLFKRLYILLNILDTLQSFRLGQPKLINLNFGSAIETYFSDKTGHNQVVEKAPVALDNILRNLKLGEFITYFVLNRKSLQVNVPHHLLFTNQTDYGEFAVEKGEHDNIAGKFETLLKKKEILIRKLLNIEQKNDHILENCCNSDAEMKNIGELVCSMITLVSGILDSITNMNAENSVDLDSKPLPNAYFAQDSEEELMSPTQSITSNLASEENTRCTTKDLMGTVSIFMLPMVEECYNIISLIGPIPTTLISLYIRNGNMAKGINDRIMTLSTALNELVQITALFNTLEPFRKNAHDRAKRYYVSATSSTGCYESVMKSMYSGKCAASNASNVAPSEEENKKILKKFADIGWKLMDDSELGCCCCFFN
# ASSAY_PROCEDURE: PBM E-score (8-mer binding enrichment) (E-score (-0.5 to 0.5)); higher = stronger / more preferred TF binding
# CONDITION_SET: protein concentration: 200 nM; construct: GST-full length
In all, about 33,000 sequences were measured (“E-score (-0.5 to 0.5)”: median about -0.012, highest 2% from about 0.29 on). This is one part of a sample in which the highest values are shown more often than they occur.
MEASURED_PROPERTY: PBM E-score

ORDERED_RESIDUES	MEASURED_PROPERTY	NUMERIC_RESULT
ACCAATCC	PBM E-score	-0.0137
AGTGGTCA	PBM E-score	-0.103
CAAATATG	PBM E-score	0.0991
AATGCGAG	PBM E-score	0.291
CTCTGGCC	PBM E-score	-0.15
CGCCCCCC	PBM E-score	-0.434
AAAATATG	PBM E-score	0.299
ATTAACTC	PBM E-score	0.291
ACATCGCT	PBM E-score	-0.101
AGACTGTA	PBM E-score	-0.175
TAGAAAGA	PBM E-score	-0.0722
ACGGTGGC	PBM E-score	-0.095
AGCAAGCC	PBM E-score	-0.126
ATACAATA	PBM E-score	0.332
GCTGCTCA	PBM E-score	-0.11
ATTAACCG	PBM E-score	0.295
GTAACCAC	PBM E-score	-0.255
ATTAACCA	PBM E-score	0.0788
AATGCGAT	PBM E-score	-0.0207
GGACCGAA	PBM E-score	0.061
GCATAGCA	PBM E-score	0.0192
CGGTTCTA	PBM E-score	0.0953
